B1: TPR t1 (parent)
chain: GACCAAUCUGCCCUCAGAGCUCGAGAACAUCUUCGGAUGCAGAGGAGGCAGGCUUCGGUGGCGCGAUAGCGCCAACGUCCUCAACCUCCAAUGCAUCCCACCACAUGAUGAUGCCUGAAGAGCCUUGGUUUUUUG

# Variants of: B1
# assay.procedure: polymerase ribozyme fitness, log enrichment relative to wild type (log ratio); higher = more active; in vitro selection for triplet polymerase activity

mutation.annotation: C89A G117A
polymerase ribozyme fitness (log ratio): -1.73

mutation.annotation: G45A C72A G117U
polymerase ribozyme fitness (log ratio): -2.7

mutation.annotation: C11U C40U G60U G77C A111U
polymerase ribozyme fitness (log ratio): -4.37

mutation.annotation: C15U G122A
polymerase ribozyme fitness (log ratio): -1.11

mutation.annotation: C80U G93A
polymerase ribozyme fitness (log ratio): -1.52

mutation.annotation: C11G C22U G44U
polymerase ribozyme fitness (log ratio): -4.93

mutation.annotation: C56A C64G
polymerase ribozyme fitness (log ratio): -5.92

mutation.annotation: A29G U32C A50U C73U
polymerase ribozyme fitness (log ratio): -2.14

mutation.annotation: C13A A43C C101A A111C
polymerase ribozyme fitness (log ratio): -6.5

mutation.annotation: A37C C104A
polymerase ribozyme fitness (log ratio): -1.22

mutation.annotation: G48A C56U C86A C94A A111C
polymerase ribozyme fitness (log ratio): -2.79

mutation.annotation: C97A C114U
polymerase ribozyme fitness (log ratio): -5.03

mutation.annotation: C13G U59C
polymerase ribozyme fitness (log ratio): 0.688

mutation.annotation: U54G C85U U116G
polymerase ribozyme fitness (log ratio): -3.02

mutation.annotation: U30G G48A C49U C62U C85A A121G
polymerase ribozyme fitness (log ratio): -6.22

mutation.annotation: A5G G36A C53G C73U C80A C82G
polymerase ribozyme fitness (log ratio): -1.5

mutation.annotation: C4A C124U
polymerase ribozyme fitness (log ratio): -1.17

mutation.annotation: C4A C11G G60A C114G
polymerase ribozyme fitness (log ratio): -5.08

mutation.annotation: C11U A43G C72G
polymerase ribozyme fitness (log ratio): -2.54

mutation.annotation: A29U C53A
polymerase ribozyme fitness (log ratio): -1.37

mutation.annotation: C53A C56A A90G C97A U132C
polymerase ribozyme fitness (log ratio): -3.46

mutation.annotation: A27U A29G G63C G127C
polymerase ribozyme fitness (log ratio): -6.04

mutation.annotation: A43G C114U
polymerase ribozyme fitness (log ratio): -1.57
